The measured values listed here are drawn from patent US4762850A.

TEST SYSTEM: dopamine-β-hydroxylase (DBH) (Bos taurus, UniProt P15101)
Sequence (P15101 1-610): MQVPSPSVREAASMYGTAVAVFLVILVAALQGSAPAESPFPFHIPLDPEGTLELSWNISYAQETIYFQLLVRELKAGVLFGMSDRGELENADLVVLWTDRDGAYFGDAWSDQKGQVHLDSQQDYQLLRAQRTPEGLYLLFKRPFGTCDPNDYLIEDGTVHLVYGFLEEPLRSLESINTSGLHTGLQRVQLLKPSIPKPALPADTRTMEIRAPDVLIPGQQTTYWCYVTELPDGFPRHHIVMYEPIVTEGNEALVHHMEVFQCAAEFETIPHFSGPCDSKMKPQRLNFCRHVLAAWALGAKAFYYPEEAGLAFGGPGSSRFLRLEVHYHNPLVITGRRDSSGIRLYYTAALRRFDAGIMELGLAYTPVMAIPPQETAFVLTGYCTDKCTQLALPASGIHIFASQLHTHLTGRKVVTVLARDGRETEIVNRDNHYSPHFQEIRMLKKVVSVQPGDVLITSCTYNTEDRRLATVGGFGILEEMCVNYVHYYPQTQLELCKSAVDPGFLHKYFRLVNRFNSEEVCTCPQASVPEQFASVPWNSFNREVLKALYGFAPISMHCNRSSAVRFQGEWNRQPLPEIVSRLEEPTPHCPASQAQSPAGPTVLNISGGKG
READOUT: IC50 (µM)
# unit: µM | format: bare number

Short answer for `O=C(O)c1cnc(S)n1Cc1cc(F)cc(F)c1` : IC50 was 100

For record `NCCNC(=O)c1cnc(S)n1Cc1cc(F)cc(F)c1` the listed IC50 is 0.34
